From: PubChem BioAssay AID1159580

- ASSAY_COMMENT: chemical genetic growth profiling, strain panel (AID 1159580);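 further: tested at 20 µM; growth read once vehicle control cultures reached saturation at 30 °C; 1 = growth at the plate median or of vehicle wells; lower values mean less growth of the strain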
- SETUP_CONDITIONS: S. cerevisiae deletion strains, growth OD, locus YDL214C, strain PRR2, hits give low values
Among all 5,500 compounds or so, about 2,000 (36%) were called active. Roughly 18% stayed inconclusive and do not appear here. The list shows a part of the results.
ENDPOINT: normalized growth

>>> df
                                 mol_smiles  value_reported
0  O=S(=O)(Nc1cc(C(F)(F)F)ccc1F)c1cc(C(F)(F)F)ccc1Cl           0.905
1  Cc1cc(C(=O)O/N=C(/N)c2ccc([N+](=O)[O-])o2)no1           0.887
2  Cc1cc(C(=O)O/N=C(/N)c2ccc(C(C)(C)C)cc2)no1           0.909
